# experimentalSystem: furin, P09958;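 note: purified furin at 1:10 enzyme:substrate in 50 mM HEPES pH 7.5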
# Sequence (P09958 whole entry): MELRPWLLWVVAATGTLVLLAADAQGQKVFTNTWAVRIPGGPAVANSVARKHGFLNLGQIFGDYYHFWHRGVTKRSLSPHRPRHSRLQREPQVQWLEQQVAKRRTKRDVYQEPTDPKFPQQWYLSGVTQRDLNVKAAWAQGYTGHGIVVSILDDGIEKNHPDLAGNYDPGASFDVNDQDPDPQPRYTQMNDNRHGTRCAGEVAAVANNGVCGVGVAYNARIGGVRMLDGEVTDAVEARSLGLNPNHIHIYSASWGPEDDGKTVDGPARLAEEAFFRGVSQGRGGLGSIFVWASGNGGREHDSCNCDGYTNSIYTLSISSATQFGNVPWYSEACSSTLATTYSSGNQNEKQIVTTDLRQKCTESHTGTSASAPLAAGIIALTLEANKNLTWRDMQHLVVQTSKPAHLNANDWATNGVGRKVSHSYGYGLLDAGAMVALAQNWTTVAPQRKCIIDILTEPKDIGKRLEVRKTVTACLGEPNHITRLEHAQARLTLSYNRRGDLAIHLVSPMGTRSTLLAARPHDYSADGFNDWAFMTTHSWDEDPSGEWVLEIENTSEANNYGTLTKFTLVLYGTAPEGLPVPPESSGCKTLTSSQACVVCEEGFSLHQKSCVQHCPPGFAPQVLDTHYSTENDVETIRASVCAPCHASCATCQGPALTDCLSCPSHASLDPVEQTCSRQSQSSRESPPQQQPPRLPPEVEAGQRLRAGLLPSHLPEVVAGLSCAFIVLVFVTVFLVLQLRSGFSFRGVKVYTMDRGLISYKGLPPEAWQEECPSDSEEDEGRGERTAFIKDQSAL
# methodSummary: furin cleavage Z-score vs untreated control; higher = more cleavage, active = 3.5 or more, inactive = 1 or less, 8 variable residues between constant flanks
# condition: 7.5 min
The other results are listed elsewhere or left out. The true hit rate is not given.
readoutLabel: furin cleavage Z-score

                 entrysequence  experimentalresult
0  CAGPLRSKRRAGNASASA [FS-128]       3.54 (active)

Q) Bench note: what furin cleavage Z-score did CARSKRASYVAGNASASA [FS-2808] show?
A) 5.25 (active)

Q) // lookup furin cleavage Z-score for CARDKKSLLQAGNASASA [FS-2133]
A) 0.497 (inactive)
